B1: CPEB3 Ribozyme (parent)
chain: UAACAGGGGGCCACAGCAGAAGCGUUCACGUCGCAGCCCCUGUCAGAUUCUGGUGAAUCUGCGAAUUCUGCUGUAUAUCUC

Variants of: B1
experimentalDetails: self-cleavage, relative activity (ratio to wild type); higher = more cleavage; in vitro, sequencing
# self-cleavage values compiled below
Provide a numeric answer; units are not to be included.

A selection of reference data follows.
| mutationName | self-cleavage |
| --- | --- |
| A18G G33U | 0.19 |
| U26A G52A | 1.06 |
| G33A C40U | 0.38 |

// below: self-cleavage requested for another variant
The variant listed as U67C U69A has a reported self-cleavage of 0.33
